Attribute: Kd
- Tested System: T1, human IL-21R extracellular domain His-Flag fusion protein (human, UniProt Q9HBE5 20-232)
- T1 construct: Biotinylated in the HTRF screen; also called hIL-21R-H/F; human IL-21R-H/F
- T1 sequence (Q9HBE5 20-232): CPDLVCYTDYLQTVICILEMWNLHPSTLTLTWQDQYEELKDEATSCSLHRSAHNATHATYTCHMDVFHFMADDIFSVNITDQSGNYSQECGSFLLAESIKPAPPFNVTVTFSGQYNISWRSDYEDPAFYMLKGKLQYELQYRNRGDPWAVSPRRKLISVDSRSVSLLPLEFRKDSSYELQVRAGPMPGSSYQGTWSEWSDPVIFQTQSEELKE
- Assay Method Text: SPR, Ab captured on anti-human IgG, replicate experiment
Please reply with the bare figure in nM and do not write the unit itself.

| Binder | Observed Value |
| --- | --- |
| AbU (antibody, human IgG1, V domains shown, CDR3 graft, residue limits derived as for m29; also called VHP/VL25; VHPTM/VL25) VH: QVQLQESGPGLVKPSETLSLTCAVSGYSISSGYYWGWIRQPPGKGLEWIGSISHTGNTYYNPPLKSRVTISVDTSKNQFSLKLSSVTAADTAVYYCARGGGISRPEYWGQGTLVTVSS VL: SSELTQDPAVSVALGQTVRITCQGDSLRTYYASWYQQKPGQAPVLVIYGKHKRPSGIPDRFSGSSSGNTASLTITGAQAEDEADYYCTTRSNKGNPHVLFGGGTQLTVL | 0.329 |
| AbP (antibody, human IgG1, V domains shown, CDR3 graft, residue limits derived as for m29; also called VHP/VL20; VHPTM/VL20) VH: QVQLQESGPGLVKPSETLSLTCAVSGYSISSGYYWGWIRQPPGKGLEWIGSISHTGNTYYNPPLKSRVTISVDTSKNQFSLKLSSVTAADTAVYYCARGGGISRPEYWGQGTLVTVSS VL: SSELTQDPAVSVALGQTVRITCQGDSLRTYYASWYQQKPGQAPVLVIYGKHKRPSGIPDRFSGSSSGNTASLTITGAQAEDEADYYCVSRSAKGNPHVLFGGGTQLTVL | 0.436 |

Okay, now this binder:
Quick check: Kd of AbQ (antibody, human IgG1, V domains shown, CDR3 graft, residue limits derived as for m29; also called VH3/VL2; VH3DM/VL2) VH: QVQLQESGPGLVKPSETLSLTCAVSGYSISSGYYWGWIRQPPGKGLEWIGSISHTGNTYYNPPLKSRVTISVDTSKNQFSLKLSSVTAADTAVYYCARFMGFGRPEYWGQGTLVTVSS VL: SSELTQDPAVSVALGQTVRITCQGDSLRTYYASWYQQKPGQAPVLVIYGKHKRPSGIPDRFSGSSSGNTASLTITGAQAEDEADYYCVARSVVGNPHVLFGGGTQLTVL ? 0.213
